For each entry below, report its Relative cAMP EC50 value.
- Experimental target: human glucagon receptor (human) (UniProt P47871)
- Sequence (P47871 26-477): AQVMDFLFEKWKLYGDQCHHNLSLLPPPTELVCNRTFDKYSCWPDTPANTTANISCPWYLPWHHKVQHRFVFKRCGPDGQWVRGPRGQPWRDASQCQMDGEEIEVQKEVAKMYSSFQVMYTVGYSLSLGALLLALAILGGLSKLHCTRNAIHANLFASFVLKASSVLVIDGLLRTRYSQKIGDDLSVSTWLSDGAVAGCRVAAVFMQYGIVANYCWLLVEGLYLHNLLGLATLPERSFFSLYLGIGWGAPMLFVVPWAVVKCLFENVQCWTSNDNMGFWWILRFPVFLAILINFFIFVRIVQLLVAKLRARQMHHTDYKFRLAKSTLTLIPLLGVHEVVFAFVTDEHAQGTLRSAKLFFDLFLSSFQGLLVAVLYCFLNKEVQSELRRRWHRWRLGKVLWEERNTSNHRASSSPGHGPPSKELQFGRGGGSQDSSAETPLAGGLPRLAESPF
- Method summary: cell-based or functional assay
Starred links: 1 amine or outer side, 2 acyl side, 3 side chain; linkers in the order of their positions; H or OH if unused. Non-standard residues stand in square brackets, D forms with d. Groups on a side chain read outwards from the residue. No end group written: not given here. *: point of attachment. C20 diacid = O=C(O)CCCCCCCCCCCCCCCCCCC(=O)*; αMePhe(2-F) = C[C@](N)(Cc1ccccc1F)C(=O)O; γGlu = O=C(O)[C@H](CCC(=O)[*:2])N[*:1]; AEEA = NCCOCCOCC(=O)O; Aib = CC(C)(N)C(=O)O
# value in nM; strip the unit string

Lookup: Item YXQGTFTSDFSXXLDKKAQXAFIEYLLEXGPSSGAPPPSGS (synthetic construct; SITE 2: note = 2-Aminoisobutyric Acid; SITE 12: note = L-ornithine; SITE 13: note = alpha-methyl-leucine; SITE 17: note = Lysine is chemically modified through conjugation of the epsilon-amino group of the Lysine side chain with (2-[2-(2-Amino-ethoxy)-ethoxy]-acetyl)2-(gamma-Glu)) [Example 75] has what recorded Relative cAMP EC50?
Found: 4.51

Lookup: Item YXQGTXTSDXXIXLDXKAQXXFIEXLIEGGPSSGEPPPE (synthetic construct; SITE 2: note = 2-Aminoisobutyric Acid; SITE 6: note = alpha-methyl-2-fluoro-L-phenylalanine; SITE 10: note = 3-(4-Pyridyl)-L-alanine; SITE 11: note = alpha-methyl-L-serine; SITE 13: note = alpha-methyl-leucine; SITE 16: note = L-ornithine; SITE 17: note = Lysine is chemically mo) [Example 378] has what recorded Relative cAMP EC50?
Found: 1.45

Lookup: Item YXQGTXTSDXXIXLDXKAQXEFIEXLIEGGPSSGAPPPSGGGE (non-natural residues (Aib, αMeF, 4Pal, Orn, Me4Pal); lipidated Lys; C-amide; synthetic construct; SITE 2: note = 2-Aminoisobutyric Acid; SITE 6: note = alpha-methyl-L-phenylalanine; SITE 10: note = 3-(4-Pyridyl)-L-alanine; SITE 11: note = alpha-methyl-L-serine; SITE 13: note = alpha-methyl-leucine; SITE 16: note = L-ornithine; SITE 17: note = Lysine is chemically modified th) [Example 1174] has what recorded Relative cAMP EC50?
Found: 2.58

Lookup: Item Y[Aib]QGT[αMePhe(2-F)]TSDYSILLDKIAQK([AEEA-γGlu-C20 diacid])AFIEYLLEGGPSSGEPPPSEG-NH2 [Example 293] has what recorded Relative cAMP EC50?
Found: 4.01

Lookup: Item YXQATXTSDXXIXLDXKAQXEFIEXLVEGGPSSGAPPPSGS (synthetic construct; SITE 2: note = 2-Aminoisobutyric Acid; SITE 4: note = D-amino acid; SITE 6: note = alpha-methyl-2-fluoro-L-phenylalanine; SITE 10: note = 3-(4-Pyridyl)-L-alanine; SITE 11: note = alpha-methyl-L-serine; SITE 13: note = alpha-methyl-leucine; SITE 16: note = L-ornithine; SITE 17: n) [Example 1204] has what recorded Relative cAMP EC50?
Found: 3.5

Lookup: Item YXQGTXTSDXXIXLDXKAQXEFIEXLVEGGPSSGEPPPEGE (Aib, αMeF(2F), 4Pal, Me4Pal, Orn; lipidated Lys; C-terminal amide; synthetic construct; SITE 2: note = 2-Aminoisobutyric Acid; SITE 6: note = alpha-methyl-2-fluoro-L-phenylalanine; SITE 10: note = 3-(4-Pyridyl)-L-alanine; SITE 11: note = alpha-methyl-L-serine; SITE 13: note = alpha-methyl-leucine; SITE 16: note = L-ornithine; SITE 17: note = Lysine is chemically mo) [Example 1159] has what recorded Relative cAMP EC50?
Found: 1.86

Lookup: Item YXQGTFTSDXSQXLDKKAQXAFIEXLLEGGPSSGAPPPSGS (synthetic construct; SITE 2: note = 2-Aminoisobutyric Acid; SITE 10: note = 3-(4-Pyridyl)-L-alanine; SITE 13: note = alpha-methyl-leucine; SITE 17: note = Lysine is chemically modified through conjugation of the epsilon-amino group of the Lysine side chain with (gamma-Glu)2-CO-(CH2)16-CO2H; SITE 20:) [Example 938] has what recorded Relative cAMP EC50?
Found: 13.3

Lookup: Item YXQGTXTSDXXIXLDXQAQXEFIEXLIEGGPSSGAPPPSGSE (not fully specified; synthetic construct; SITE 2: note = 2-Aminoisobutyric Acid; SITE 6: note = alpha-methyl-2-fluoro-L-phenylalanine; SITE 10: note = 3-(4-Pyridyl)-L-alanine; SITE 11: note = alpha-methyl-L-serine; SITE 13: note = alpha-methyl-leucine; SITE 16: note = L-ornithine; SITE 20: note = 3-(4-Pyridyl)-L-alanine) [Example 1233] has what recorded Relative cAMP EC50?
Found: 9.48

Lookup: Item YXQGTFTSDXSKXLDKKAQXAFIEYLIEXGPSSGAPPPSGSE (synthetic construct; SITE 2: note = 2-Aminoisobutyric Acid; SITE 10: note = 3-(4-Pyridyl)-L-alanine; SITE 13: note = alpha-methyl-leucine; SITE 17: note = Lysine is chemically modified through conjugation of the epsilon-amino group of the Lysine side chain with (2-[2-(2-Amino-ethoxy)-ethoxy]-acetyl)) [Example 901] has what recorded Relative cAMP EC50?
Found: 9.09

Lookup: Item YXQGTFTSDFSXXLDKKAQXAFIEYLLEGGPSSGAPPPGGS (synthetic construct; SITE 2: note = 2-Aminoisobutyric Acid; SITE 12: note = L-ornithine; SITE 13: note = alpha-methyl-leucine; SITE 17: note = Lysine is chemically modified through conjugation of the epsilon-amino group of the Lysine side chain with (2-[2-(2-Amino-ethoxy)-ethoxy]-acetyl)-(gamma-Glu)) [Example 62] has what recorded Relative cAMP EC50?
Found: 3.96

Lookup: Item YXQGTFTSDFSXXLDKKAQXAFIEYLIEXSPSSGAPPPSGS (synthetic construct; SITE 2: note = 2-Aminoisobutyric Acid; SITE 12: note = L-ornithine; SITE 13: note = alpha-methyl-leucine; SITE 17: note = Lysine is chemically modified through conjugation of the epsilon-amino group of the Lysine side chain with (2-[2-(2-Amino-ethoxy)-ethoxy]-acetyl)-(gamma-Glu)) [Example 804] has what recorded Relative cAMP EC50?
Found: 11.5

Cited source for all entries: patent US20240270821A1
